# test-protocol: xn = mol fraction of the nth substance listed
# measurement-parameters: 303.15 K; 101 kPa; x1 = 0.2
metric-name: viscosity (mPa·s)
Write the number in mPa·s without appending the unit.

>>> result_value("CCOC(=O)[C@@H](O)[C@H](O)C(=O)OCC + CC(C)CCO")
4.88

### Prompt Identify viscosity associated with the compound CCOC(=O)[C@@H](O)[C@H](O)C(=O)OCC + CCCO
### Response 3.7

### Prompt Identify viscosity associated with the compound CCOC(=O)[C@@H](O)[C@H](O)C(=O)OCC + CC(C)CO
### Response 4.928

###

Reported viscosity values follow for various compounds
# measurement-parameters: 318.15 K; 100 kPa
± gives the uncertainty stated by the source.

# annotated cases, reported viscosity shown
>>> result_value("OC1CCCCCCC1")
"40 ± 3.1 mPa·s"
>>> result_value("CC1CCCCC1")
"0.54 ± 0.07 mPa·s"
>>> result_value("CCCC[n+]1ccn(C)c1.N#C[S-]")
"25.8 ± 1.4 mPa·s"

Please look at the following compound next.
### Prompt Identify viscosity associated with the compound CC(C)O
### Response 1.171 ± 0.12 mPa·s

###

# test-protocol: xn = mol fraction of the nth substance listed
# measurement-parameters: 323.15 K; 101 kPa; x1 = 0.2
Reported viscosity values follow for various molecules
Write the number in mPa·s without appending the unit.

>>> result_value("CCOC(=O)[C@@H](O)[C@H](O)C(=O)OCC + CCCO")
2.108
>>> result_value("CCOC(=O)[C@@H](O)[C@H](O)C(=O)OCC + CC(C)CO")
2.567
>>> result_value("CCOC(=O)[C@@H](O)[C@H](O)C(=O)OCC + CC(C)CCO")
2.649

Please look at the following molecule next.
### Prompt Identify viscosity associated with the molecule CCOC(=O)[C@@H](O)[C@H](O)C(=O)OCC + CCCCCCO
### Response 2.946

###

# test-protocol: xn = mol fraction of the nth substance listed
# measurement-parameters: 303.15 K; 101 kPa; x1 = 0.5998
± gives the uncertainty stated by the source.
Reported viscosity values follow for various compounds

# annotated cases, reported viscosity shown
>>> result_value("CC1CCCCC1 + CCCCCCCCCC")
"0.702 ± 0.012 mPa·s"
>>> result_value("CCOC(=O)[C@@H](O)[C@H](O)C(=O)OCC + CCCCCCO")
"17.51 ± 0.14 mPa·s"
>>> result_value("CC1CCCCC1 + CC(C)CC(C)(C)C")
"0.5431 ± 0.004 mPa·s"

Please look at the following compound next.
### Prompt Identify viscosity associated with the compound CCOC(C)(C)C + CCCCOCCO
### Response 0.857 ± 0.022 mPa·s

###

# measurement-parameters: 298.15 K; 101 kPa
metric-name: log10 viscosity (log10 of the value in mPa·s)
For clarity, the numbers are log10 values of viscosity expressed in mPa·s.

>>> result_value("CC(=O)[O-].CCCC[NH2+]CCO")
2.96
>>> result_value("C=C(C)C(=O)OCC")
-0.19
>>> result_value("Cc1ccccc1[N+](=O)[O-]")
0.32
>>> result_value("CCC(C)CO (stereo not given)")
0.69
>>> result_value("CC1CCCCC1")
-0.17
>>> result_value("N#CCc1ccccc1")
0.27

### Prompt Identify log10 viscosity associated with the compound CCCCCl
### Response -0.37

### Prompt Identify log10 viscosity associated with the compound c1cscn1
### Response 0.00

### Prompt Identify log10 viscosity associated with the compound CCCC[N+]1(C)CCCC1.N#C[S-]
### Response 2.04

### Prompt Identify log10 viscosity associated with the compound CCS(=O)CC
### Response 0.37

Origin of the recorded values: the CheMixHub viscosity set
